system: P. aeruginosa CDC-0110; assay: microbe, parasite or virus in culture; format: cell-based; conditions: Pseudomonas aeruginosa, CDC0110, read-out: Minimum inhibitory concentration, P. aeruginosa CDC-0110

{"COMPOUND": "O=C(O)c1c(F)ccc2c1OB(O)[C@@H](NC(=O)[C@H](NC(=O)N1CCN(Cc3ccc(O)c(O)c3Cl)C(=O)C1=O)c1ccc(P(=O)(O)O)c(F)c1F)C2", "TARGET_OR_TEST_SYSTEM": "P. aeruginosa CDC-0110", "MIC": "< 1 µg/mL"}
{"COMPOUND": "O=C(NCCS(=O)(=O)N1CCN(C(=O)NC(C(=O)N[C@H]2Cc3ccc(F)c(C(=O)O)c3OB2O)c2cc(F)c(O)c(O)c2Cl)C1=O)c1ccccc1 (some centres unmarked)", "TARGET_OR_TEST_SYSTEM": "P. aeruginosa CDC-0110", "MIC": "2 to 4 µg/mL"}
{"COMPOUND": "O=C(O)c1c(F)ccc2c1OB(O)[C@@H](NC(=O)C(NC(=O)N1CCN(Cc3cc(F)c(O)c(O)c3Cl)C(=O)C1=O)c1ccc(P(=O)(O)O)cc1)C2 (some centres unmarked)", "TARGET_OR_TEST_SYSTEM": "P. aeruginosa CDC-0110", "MIC": "< 1 µg/mL"}
{"COMPOUND": "O=C(NCCS(=O)(=O)N1CCN(C(=O)N[C@H](C(=O)N[C@H]2Cc3ccc(F)c(C(=O)O)c3OB2O)c2cc(F)c(O)c(O)c2Cl)C1=O)c1nccs1", "TARGET_OR_TEST_SYSTEM": "P. aeruginosa CDC-0110", "MIC": "> 128 µg/mL"}
{"COMPOUND": "O=C(O)c1c(F)ccc2c1OB(O)[C@@H](NC(=O)[C@H](NC(=O)N1CCN(C3CCN(C(=O)Nc4cc(O)ccc4F)CC3)C1=O)c1cc(F)c(O)c(O)c1Cl)C2 (single isomer, unassigned)", "TARGET_OR_TEST_SYSTEM": "P. aeruginosa CDC-0110", "MIC": "< 1 µg/mL"}

====

target: A. baumannii PBP1a (Acinetobacter baumannii, UniProt A0ABX6CK30); experiment: Bocillin-FL competition binding via gel filtration, A. baumannii PBP1a; conditions: competition binding assay using Bocillin-FL via gel filtration; read-out: A. baumannii PBP1a Potency
Sequence (A0ABX6CK30 1-851): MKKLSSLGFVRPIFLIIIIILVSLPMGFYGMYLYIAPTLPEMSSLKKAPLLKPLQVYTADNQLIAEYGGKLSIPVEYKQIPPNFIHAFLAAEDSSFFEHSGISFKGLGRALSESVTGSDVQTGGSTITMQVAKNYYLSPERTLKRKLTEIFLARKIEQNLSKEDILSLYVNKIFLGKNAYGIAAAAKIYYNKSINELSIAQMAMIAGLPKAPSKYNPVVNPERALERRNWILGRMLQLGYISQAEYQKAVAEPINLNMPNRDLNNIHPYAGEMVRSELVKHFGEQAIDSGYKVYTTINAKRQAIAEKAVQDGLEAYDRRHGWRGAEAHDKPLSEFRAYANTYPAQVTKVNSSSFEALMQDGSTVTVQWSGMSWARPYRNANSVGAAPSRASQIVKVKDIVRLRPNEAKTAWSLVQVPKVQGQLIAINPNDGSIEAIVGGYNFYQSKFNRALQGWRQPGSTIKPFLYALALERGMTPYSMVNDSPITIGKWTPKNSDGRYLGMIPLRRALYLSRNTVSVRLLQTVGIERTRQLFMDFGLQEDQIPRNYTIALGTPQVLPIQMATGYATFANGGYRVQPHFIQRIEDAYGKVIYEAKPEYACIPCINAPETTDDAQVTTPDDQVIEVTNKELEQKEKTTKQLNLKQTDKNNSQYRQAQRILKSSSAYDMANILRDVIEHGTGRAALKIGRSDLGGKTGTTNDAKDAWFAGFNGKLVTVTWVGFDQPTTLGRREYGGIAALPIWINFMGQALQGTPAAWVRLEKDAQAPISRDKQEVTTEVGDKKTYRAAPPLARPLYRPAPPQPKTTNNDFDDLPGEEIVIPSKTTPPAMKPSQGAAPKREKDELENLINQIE
pEC50: −log10 of the molar value.

{"MOLECULE": "O=C(NCCN1CCN(C(=O)N[C@@H](C(=O)N[C@H]2Cc3ccc(F)c(C(=O)O)c3OB2O)c2cc(F)c(O)c(O)c2Cl)C(=O)C1=O)Nc1cccnc1 [Example 222]", "TARGET_OR_TEST_SYSTEM": "A. baumannii PBP1a (Acinetobacter baumannii, UniProt A0ABX6CK30)", "pEC50": "4.30 to 5.00"}
{"MOLECULE": "O=C(NCCS(=O)(=O)N1CCN(C(=O)NC(C(=O)N[C@H]2Cc3ccc(F)c(C(=O)O)c3OB2O)c2cc(F)c(O)c(O)c2Cl)C1=O)Nc1ccc(O)cc1 (some centres unmarked) [Example 289]", "TARGET_OR_TEST_SYSTEM": "A. baumannii PBP1a (Acinetobacter baumannii, UniProt A0ABX6CK30)", "pEC50": "> 5.00"}
{"MOLECULE": "O=C(NCCCN1CCN(C(=O)NC(C(=O)N[C@H]2Cc3ccc(F)c(C(=O)O)c3OB2O)c2cc(F)c(O)c(O)c2Cl)C(=O)C1=O)c1ccc(O)c(Cl)c1F (some centres unmarked) [Example 419]", "TARGET_OR_TEST_SYSTEM": "A. baumannii PBP1a (Acinetobacter baumannii, UniProt A0ABX6CK30)", "pEC50": "> 5.00"}
{"MOLECULE": "O=C(O)c1c(F)ccc2c1OB(O)[C@@H](NC(=O)[C@H](NC(=O)N1CCN(C3CCN(Cc4cncc(O)c4)CC3)C1=O)c1cc(F)c(O)c(O)c1Cl)C2 (single isomer, unassigned) [Example 614]", "TARGET_OR_TEST_SYSTEM": "A. baumannii PBP1a (Acinetobacter baumannii, UniProt A0ABX6CK30)", "pEC50": "4.30 to 5.00"}
{"MOLECULE": "O=C(O)c1c(F)ccc2c1OB(O)[C@@H](NC(=O)C(NC(=O)N1CCN(C3CCN(C(=O)c4cccc(O)c4)CC3)C(=O)C1=O)c1cc(F)c(O)c(O)c1Cl)C2 (some centres unmarked) [Example 293]", "TARGET_OR_TEST_SYSTEM": "A. baumannii PBP1a (Acinetobacter baumannii, UniProt A0ABX6CK30)", "pEC50": "4.30 to 5.00"}
{"MOLECULE": "O=C(NCCS(=O)(=O)N1CCN(C(=O)N[C@@H](C(=O)N[C@H]2Cc3ccc(F)c(C(=O)O)c3OB2O)c2cc(F)c(O)c(O)c2Cl)C1=O)c1ccc(O)cc1 [Example 287]", "TARGET_OR_TEST_SYSTEM": "A. baumannii PBP1a (Acinetobacter baumannii, UniProt A0ABX6CK30)", "pEC50": "4.30 to 5.00"}
{"MOLECULE": "O=C(NCCCN1CCN(C(=O)NC(C(=O)N[C@H]2Cc3ccc(F)c(C(=O)O)c3OB2O)c2cc(F)c(O)c(O)c2Cl)C(=O)C1=O)c1ccncc1Cl (some centres unmarked) [Example 295]", "TARGET_OR_TEST_SYSTEM": "A. baumannii PBP1a (Acinetobacter baumannii, UniProt A0ABX6CK30)", "pEC50": "4.30 to 5.00"}
{"MOLECULE": "O=C(NCCCN1CCN(C(=O)N[C@@H](C(=O)N[C@H]2Cc3ccc(F)c(C(=O)O)c3OB2O)c2cc(F)c(O)c(O)c2Cl)C(=O)C1=O)c1ccc(O)cc1F (racemic) [Example 417]", "TARGET_OR_TEST_SYSTEM": "A. baumannii PBP1a (Acinetobacter baumannii, UniProt A0ABX6CK30)", "pEC50": "4.30 to 5.00"}
{"MOLECULE": "O=C(NCCCN1CCN(C(=O)NC(C(=O)N[C@H]2Cc3ccc(F)c(C(=O)O)c3OB2O)c2cc(F)c(O)c(O)c2Cl)C(=O)C1=O)c1cc(O)ccc1F (some centres unmarked) [Example 407]", "TARGET_OR_TEST_SYSTEM": "A. baumannii PBP1a (Acinetobacter baumannii, UniProt A0ABX6CK30)", "pEC50": "> 5.00"}
{"MOLECULE": "O=C(O)c1c(F)ccc2c1OB(O)[C@@H](NC(=O)C(NC(=O)N1CCN(Cc3ccc(O)c(O)c3Cl)C(=O)C1=O)c1ccc(P(=O)(O)O)c(F)c1)C2 (some centres unmarked) [Example 23]", "TARGET_OR_TEST_SYSTEM": "A. baumannii PBP1a (Acinetobacter baumannii, UniProt A0ABX6CK30)", "pEC50": "4.30 to 5.00"}
{"MOLECULE": "O=C(O)c1c(F)ccc2c1OB(O)[C@@H](NC(=O)C(NC(=O)N1CCN(C3CCN(C(=O)Nc4cccc(O)c4F)CC3)C(=O)C1=O)c1cc(F)c(O)c(O)c1Cl)C2 (some centres unmarked) [Example 478]", "TARGET_OR_TEST_SYSTEM": "A. baumannii PBP1a (Acinetobacter baumannii, UniProt A0ABX6CK30)", "pEC50": "4.30 to 5.00"}
